Examples of molecules with documented melting point follow.

Check out these entries, answers already filled in.
molecule: O=S(=O)(NC1CCCNC1)c1cccc(F)c1 (stereo not drawn)
melting point: 137 to 139 °C
//
molecule: O=C(O)c1c[nH]cc1-c1ccc2c(c1)OCCO2
melting point: 196 to 198 °C
//
molecule: O=C(O)CCc1ccc([N+](=O)[O-])cc1[N+](=O)[O-]
melting point: 124 to 126 °C
//
molecule: O=C(O)CCc1nc(-c2ccccc2)no1
melting point: 138 to 140 °C
//
molecule: Cc1cc(Cl)ncc1O
melting point: 168 to 170 °C

Exam item: Return melting point for the following molecule: O=C(O)c1ccc(F)c2ccsc12
Marked response: 230 to 232 °C

Exam item: Supply reported melting point belonging to this molecule: CNC(c1ccc(Cl)cc1)c1ccc(Cl)cc1
Marked response: 49 to 51 °C

Exam item: Look up and state reported melting point for Cc1nc(-c2ccc(S(=O)(=O)Cl)cc2)co1
Marked response: 84 to 86 °C

Exam item: Report measured melting point; entry is CC1CN(S(=O)(=O)Cl)CC(C)O1 (stereo not drawn)
Marked response: 74 to 76 °C

Exam item: For the molecule COc1ccc(C(=O)CBr)cc1OC , give its measured melting point value.
Marked response: 83 to 85 °C

Exam item: Could you please provide reported melting point for Fc1ccc(OCc2ccc3ccccc3n2)c(Br)c1 ? Thanks!
Marked response: 124 to 126 °C

Exam item: Supply recorded melting point for O=C(O)Cc1cn2ccsc2n1 here.
Marked response: 180 to 184 °C

Exam item: In one line, give reported melting point of the entry COc1ccc(C2(C(=O)O)CCCC2)cc1OC .
Marked response: 140 to 142 °C

====

Listing: melting point of selected molecules

Check out these entries, answers already filled in.
molecule: O=C(O)C1CCCN(c2ncccc2C(F)(F)F)C1 (centres undefined)
recordedMeasurement: 86 to 88 °C

molecule: CC1CCCN(S(=O)(=O)c2ccc(N)cc2)C1 (centres undefined)
recordedMeasurement: 129 to 131 °C

molecule: CC(C)(C)OC(=O)NCc1cc[nH]n1
recordedMeasurement: 104 to 106 °C

Exam item: Indicate its recorded melting point; the molecule in question is O=C(CCSc1ccccn1)c1ccc(F)cc1
Marked response: 60 to 62 °C

Exam item: Please look at this molecule and report its melting point: Cc1cc(C)cc(NC(=O)CCl)c1
Marked response: 141 to 143 °C

Exam item: Supply recorded melting point for Cc1nn(C)c2ncc(C#N)cc12 here.
Marked response: 176 to 178 °C

Exam item: Quickly give me recorded melting point for c1ccc2[nH]c(C3CCCCN3)cc2c1 (centres undefined)
Marked response: 151 to 153 °C

Exam item: Output melting point of NC(=O)c1ccncc1F
Marked response: 126 to 128 °C

Exam item: Using the record for O=S(=O)(NCC1CC1)c1ccc(Cl)nc1 , state its measured melting point.
Marked response: 95 to 97 °C

====

valueType: melting point

Below: 5 compounds and their reported melting point.
compound: CC1=NN(c2ccc(Cl)nn2)C(=O)C1
melting point: 229 to 231 °C
--
compound: Nc1nnc(-c2cccc3ccccc23)o1
melting point: 184 to 186 °C
--
compound: CCC(C)NC(=O)CN1CCNCC1 (configuration not stated)
melting point: 55 to 57 °C
--
compound: CC(C)(C)c1ccc(C(C)(C)N)cc1
melting point: 75 to 77 °C
--
compound: COC(=O)C1CCCN1C(=O)c1ccc([N+](=O)[O-])s1 (configuration not stated)
melting point: 119 to 121 °C

Exam item: Supply recorded melting point for Cc1cc(C(=O)O)c(C)n1C(C)C here.
Marked response: 178 to 180 °C

Exam item: Tell us which melting point value is on record for Cc1nc(COc2ccc(Cl)cc2)sc1C(=O)O
Marked response: 239 to 241 °C

Exam item: Entry Sc1nc(-c2ccccc2Cl)no1 needs its melting point filled in; supply it.
Marked response: 100 to 102 °C

Exam item: Dear colleague, please send me the reported melting point for Cc1ccc(C)c(OCc2nnc(S)o2)c1 when you can.
Marked response: 135 to 137 °C

Exam item: Supply melting point value. Item: CCOc1cc(/C=N/O)ccc1O
Marked response: 104 to 106 °C
